System: Alternaria solani
Assay: Alternaria test (tomatoes)/preventive
Type: in vivo
Settings: Alternaria solani, 72 h, read-out: Efficacy in %, found
Parameter pest or weed control at 200 ppm: see the listing below.

Compound | pest or weed control at 200 ppm / %
CN/C(=N\[N+](=O)[O-])NCc1cnc(Cl)s1 | 45
CNC(=O)Oc1cc(C)c(SC)c(C)c1 | 47
CS/C(C)=N\OC(=O)N(C)SN(C)C(=O)O/N=C(\C)SC | 52

---

Reported pest or weed control at 200 ppm values for the following compounds.
Test system: apple scab (Venturia inaequalis)
Test: Venturia test (apples)/preventive
Details: Venturia inaequalis, 240 h, read-out: Efficacy in %, found

Compound | pest or weed control at 200 ppm
N#C/N=C1\SCCN1Cc1ccc(Cl)nc1 | 4%
CNC(=O)c1cc(C#N)cc(C)c1NC(=O)c1cc(Br)nn1-c1ncccc1Cl | 18%
CN/C(=N\[N+](=O)[O-])NCc1cnc(Cl)s1 | 0%
CN1COCN(Cc2cnc(Cl)s2)/C1=N\[N+](=O)[O-] | 25%
N#Cc1nn(-c2c(Cl)cc(C(F)(F)F)cc2Cl)c(N)c1[S+]([O-])C(F)(F)F (centres unmarked) | 8%
